Where do these numbers come from? They come from patent US20250206841A1.

Biological target: T1, human Trop-2-His protein (human, UniProt P09758 27-274)
T1 construct: extracellular domain; Assay paragraphs say only 'Trop-2-His'; also called hTrop-2; Kactus Cat #TRP-HM121; not shown: His tag
T1 sequence (looked up): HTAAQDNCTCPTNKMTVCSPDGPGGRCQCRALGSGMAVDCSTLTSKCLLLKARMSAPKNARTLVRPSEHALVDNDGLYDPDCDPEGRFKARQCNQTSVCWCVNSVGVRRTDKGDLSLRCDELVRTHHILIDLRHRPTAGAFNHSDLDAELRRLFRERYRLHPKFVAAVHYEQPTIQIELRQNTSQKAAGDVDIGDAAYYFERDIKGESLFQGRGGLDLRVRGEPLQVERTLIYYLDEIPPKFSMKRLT
Assay: BLI (Gator Prime), LEM supernatant Ab on HFC probe
observation_type: koff (s⁻¹)
Numeric only. Scale: s⁻¹

[[record]]
binder = "3A4 (antibody, V domains shown, Rabbit-derived clone; LEM construct: VH + rabbit IgG CH1 + human IgG1 CH2-CH3) VH: QEQLVESGGGLVQPGGSLTLSCKGSGFDFNEYGVSWVRQAPGKGLEWIAYIYPAFHNTYYATWVNGRFTISSHNAQNTLYLQLHTLTAADTATYFCARDAGTTDYNFNLWGPGTLVTVSS VL: DVVMTQTPASVSAAVGGTVSINCQASEDIENYLAWYQQKPGQPPKLLIYEASKLASGVSSRFSGSGYGTEFTLTISGVECADAATYYCQQALTIGNVDNPFGGGSEVVVK"
experimental_value = 0.00069

[[record]]
binder = "2H5 (antibody, V domains shown, Rabbit-derived clone; LEM construct: VH + rabbit IgG CH1 + human IgG1 CH2-CH3) VH: QSLEESGGDLVQPGASLTLTCKASGFDLNNYSILWVRQAPGKGLEWIGCIYFSGGSTYYANWAKGRFAISKTSSTTVTLQMTSLTAADTATYFCARDDGTTSYYLNLWGPGTLVTVSS VL: YDMTQTPASVSEPVGGTVTIKCQASEDIYNLLAWYQQKPGQPPKLLIYAASDLESGVPSRFKGSGSGTEYTLTISDLECADAATYYCQQAYTVGNIDNAFGGGTEVVVK"
experimental_value = 0.00027

[[record]]
binder = "71F10 (antibody, V domains shown, Rabbit-derived clone; LEM construct: VH + rabbit IgG CH1 + human IgG1 CH2-CH3) VH: QSLEESGGGLVQPGASLTLTCTVSGFDFSSNAMTWVRQAPGEGLEYIGFIGIRGNIYYANWAKGRFTISKTSSTTVTLQMTSLTVADTATYFCARGGLWTGNSYFDLWGPGTLVTVSS VL: YDMTQTPASVSAAVGGTVTINCQASESISRYLAWYQQKPGQPPKPLIYRASTLASGVPSRFKGSGTGTDYTLTISDLECADAATYYCQQGYGYSTVGNAFGGGTEVVVK"
experimental_value = 0.00032

[[record]]
binder = "66A1 (antibody, V domains shown, Rabbit-derived clone; LEM construct: VH + rabbit IgG CH1 + human IgG1 CH2-CH3) VH: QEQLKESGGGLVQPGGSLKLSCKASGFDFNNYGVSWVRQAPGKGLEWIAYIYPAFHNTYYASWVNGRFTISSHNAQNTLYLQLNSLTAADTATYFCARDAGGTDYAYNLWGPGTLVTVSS VL: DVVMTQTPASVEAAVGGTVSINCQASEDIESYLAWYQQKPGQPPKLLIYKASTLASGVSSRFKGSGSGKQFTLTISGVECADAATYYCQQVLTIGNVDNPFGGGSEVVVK"
experimental_value = 0.00028


Quick one: koff for 69H10 (antibody, V domains shown, Rabbit-derived clone; LEM construct: VH + rabbit IgG CH1 + human IgG1 CH2-CH3) VH: QEQLKESGGGLVQPGGSLKLSCKASGFDFNKYGVSWVRQAPGKGLEWIAYIYPAFHNTYYATWVNGRFTISSHNAQNTLYLQLNTLTAADTATYFCARDAGTTDYNFNLWGPGTLVTVSS VL: DVVMTQTASPVSAAVGGTVTIKCQASQSIYSYLSWYQQKPGQPPKLLIYEASKLASGVSSRFSGSGYGTEFTLTISGVECADAATYYCQQALTVGNVDNPFGGGSEVVVK ?
0.00046

Please give the measured koff for this binder: 3E9 (antibody, V domains shown, Rabbit-derived clone; LEM construct: VH + rabbit IgG CH1 + human IgG1 CH2-CH3) VH: QEQLKESGGGLVQPGGSLKLSCKASGFDFNNYGVSWVRQAPGKGLEWIAYIYPAFHNRYYANWVNGRFTISSDNAQNTVYLQLNSLTAADTATYFCARDAGSTDYKFNLWGPGTLVTVSS VL: DVVMTQTPASVSAAVGGTVTIKCQASEDIESYLAWYQQKPGQPPKLLIYDASTLASGVSSRFSGSGYGTEFTLTISGVECADAATYYCQQDLTVGNVDNPFGGGSEVVVE
0.00038

Requested field: koff. Item: 9F7 (antibody, V domains shown, Rabbit-derived clone; LEM construct: VH + rabbit IgG CH1 + human IgG1 CH2-CH3) VH: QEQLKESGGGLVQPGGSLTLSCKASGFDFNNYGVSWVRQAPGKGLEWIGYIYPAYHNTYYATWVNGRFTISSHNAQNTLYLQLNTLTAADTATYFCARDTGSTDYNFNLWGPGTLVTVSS VL: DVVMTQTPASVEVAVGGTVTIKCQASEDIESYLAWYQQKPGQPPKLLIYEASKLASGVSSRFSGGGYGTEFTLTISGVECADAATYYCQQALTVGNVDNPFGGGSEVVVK
5.8e-05

Fill in: koff of 72F12 (antibody, V domains shown, Rabbit-derived clone; LEM construct: VH + rabbit IgG CH1 + human IgG1 CH2-CH3) VH: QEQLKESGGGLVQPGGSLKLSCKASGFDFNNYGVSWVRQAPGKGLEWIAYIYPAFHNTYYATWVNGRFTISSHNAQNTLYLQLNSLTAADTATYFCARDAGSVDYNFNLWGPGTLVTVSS VL: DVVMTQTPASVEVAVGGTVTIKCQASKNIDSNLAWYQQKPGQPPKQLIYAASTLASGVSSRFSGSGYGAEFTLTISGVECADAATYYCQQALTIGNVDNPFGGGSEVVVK is ___
0.00038
